Data provenance is PubChem BioAssay (NCI).

- Tested on: RPMI-8226 leukemia
- assay text: NCI tumour cell line growth inhibition, 48 h; in the data active = GI50 below about 0.43 µM; inactive = the rest
Write down one outcome, taken from true = active, false = inactive

Problem: I would be grateful if you could indicate the recorded call for O=C(C1CC1)N1CC[C@@H](Cc2n[nH]c(=O)n2-c2ccc(-c3ccc4occc4c3)cc2)C1 .
Result: false

Problem: I would be grateful if you could indicate the recorded call for C=C1C(C(O)C[C@H](C)C2O[C@@]3(CCCCO3)CCC2C)O[C@@H]2CCC3(CCC(/C=C/[C@@H](C)C4CC(C)=CC5(O4)O[C@H](C[C@](C)(O)C(=O)O)CCC5O)O3)OC2[C@@H]1O (stereo partly drawn) .
Result: true

Problem: I would be grateful if you could indicate the recorded call for C/C(=N\NC(=O)c1ccccc1N)c1ccccc1O .
Result: false

###

- Tested on: HS 578T breast
- assay text: NCI tumour cell line growth inhibition, 48 h
Can you tell me TGI for the items I'm about to list?
Kindly provide the numeric value in µM only, without the unit symbol.

Problem: // map CN(C)CCn1c(=O)nc2c3c(c([N+](=O)[O-])ccc31)Nc1ccc(O)cc1-2 to recorded TGI (system: HS 578T breast)
Result: 22.4

Problem: // map Cc1c2cccc(Sc3ccccc3)c2c2c3c(cccc13)[S+](c1ccccc1)C2 (centres undefined) to recorded TGI (system: HS 578T breast)
Result: 13.9

Problem: // map COC(=O)[C@@H](C)C[C@H](Cc1ccccc1)NC(=O)c1nc([C@@H](C[C@H](C(C)C)N(C)C(=O)[C@@H](NC(=O)[C@H]2CCCCN2C)C(C)C)OC(C)=O)sc1C(C)C to recorded TGI (system: HS 578T breast)
Result: 1.34

Problem: // map Cc1ccc(S(=O)(=O)/N=C(\NO)Nc2ccc(Cl)c(Cl)c2)cc1 to recorded TGI (system: HS 578T breast)
Result: 27.3

###

Can you tell me TGI for the items I'm about to list?
- System: KM12 colon
- assay text: NCI tumour cell line growth inhibition, 48 h

Problem: For O=C(/C=C/c1ccccc1O)c1cccs1 , what is its reported TGI?
Result: > 100 µM

Problem: For CCN(CC)CCN1CCc2c([nH]c3ccccc23)C1c1cccnc1 (stereo unspecified) , what is its reported TGI?
Result: > 100 µM

Problem: For COC(=O)[C@]12CC[C@@H](C(=O)/C=C/c3cccnc3)[C@@H]1[C@H]1CC[C@@H]3[C@@]4(C)C/C(=C/c5cccnc5)C(=O)C(C)(C)[C@@H]4CC[C@@]3(C)[C@]1(C)CC2 , what is its reported TGI?
Result: 1.05 µM

Problem: For Clc1ccc(Cc2nc3cc(Cl)ccc3o2)cc1 , what is its reported TGI?
Result: > 100 µM

Problem: For Cc1ccc(/C(=C/C=C(/C#N)C(N)=O)Sc2ncnn2C)cc1 , what is its reported TGI?
Result: 44.3 µM

Problem: For O=C1c2ccccc2OCC1/C=N/O (stereo unspecified) , what is its reported TGI?
Result: > 100 µM

Problem: For C/C=C/CC(S(=O)(=O)c1ccccc1)S(=O)(=O)c1ccccc1 , what is its reported TGI?
Result: > 100 µM

Problem: For CN(C)C(=S)/N=c1\ss/c(=N\C(=S)N(C)C)n1C1CCCCC1 , what is its reported TGI?
Result: > 100 µM

Problem: For N#C/C(=C/N1C(=O)/C(=C/c2ccc([N+](=O)[O-])cc2)SC1=S)c1nc2ccccc2s1 , what is its reported TGI?
Result: > 100 µM

Problem: For CCOC(=O)C#Cc1c(C(=O)OCC)nnn1Cc1ccc(C(F)(F)F)cc1 , what is its reported TGI?
Result: 25.5 µM

Problem: For COc1cc(/C=C\c2cc(/C=C\c3ccc(O)c(OC)c3)n(C(=O)COc3ccccc3)n2)ccc1O , what is its reported TGI?
Result: 6.81 µM

Problem: For CC(CO)(CO)N1C(=O)C2C3c4ccccc4C(c4ccccc43)C2C1=O (stereo unspecified) , what is its reported TGI?
Result: > 100 µM

Problem: For O=c1oc2ccccc2c(O)c1C(C/C(CCN1CCCC1)=N/O)c1ccccc1 (stereo unspecified) , what is its reported TGI?
Result: > 100 µM

Problem: For CC(C)CC(=O)[O-].CC(C)CC(=O)[O-].N.N.N.N.[Co+3].[O-][Cl+3]([O-])([O-])O.[O-][Cl+3]([O-])([O-])[O-] , what is its reported TGI?
Result: > 100 µM

Problem: For CC(=O)OCC1OC(n2c(-c3ccc(Cl)cc3)cc(-c3ccccc3)c(C#N)c2=S)C(OC(C)=O)C(OC(C)=O)C1OC(C)=O (stereo unspecified) , what is its reported TGI?
Result: 48.7 µM

Problem: For O=C1CCN(CCC(F)(F)C(F)(F)C(F)(F)C(F)(F)C(F)(F)C(F)(F)F)C(=S)N1CCC(F)(F)C(F)(F)C(F)(F)C(F)(F)C(F)(F)C(F)(F)F , what is its reported TGI?
Result: > 100 µM

Problem: For O=c1[nH]c2c3ccncc3cc(-c3cccc(Cl)c3)c2c2cnccc12 , what is its reported TGI?
Result: > 100 µM

Problem: For COc1cc2c3c(c1OC)-c1ccccc1C(C(O)c1ccccc1)C3N(C)CC2 (stereo unspecified) , what is its reported TGI?
Result: 72.4 µM

Problem: For CN1C(=O)C23CC4(C56CC78SSC(CO)(C(=O)N7C5Nc5ccccc56)N(C)C8=O)c5ccccc5NC4N2C(=O)C1(CO)SS3 (stereo unspecified) , what is its reported TGI?
Result: 0.22 µM

Problem: For CCOP(=O)(OCC)/C(C#N)=C/c1nccn1C , what is its reported TGI?
Result: > 100 µM

Problem: For Cc1ccccc1N1C(N)=C(C#N)C(C#N)(C#N)C1c1ccccc1 (stereo unspecified) , what is its reported TGI?
Result: 32.6 µM

###

Can you tell me GI50 for the items I'm about to list?
- Tested on: DU-145 prostate
- assay text: NCI tumour cell line growth inhibition, 48 h

Problem: For COC(=O)[C@]12CC[C@@H](C(=O)/C=C/c3cccnc3)[C@@H]1[C@H]1CC[C@@H]3[C@@]4(C)C/C(=C/c5cccnc5)C(=O)C(C)(C)[C@@H]4CC[C@@]3(C)[C@]1(C)CC2 , what is its reported GI50?
Result: 0.773 µM

Problem: For CCN1C2=C(SC(=S)C1=C1SC(C(=O)OC)=C(C(=O)OC)S1)SC(=Nc1ccc(OC)cc1)C2=O , what is its reported GI50?
Result: 1.73 µM

Problem: For CNC[C@@H](NC(=O)c1ccc(-c2nc([C@H]3CC[C@H](O)[C@@H](F)C3)cnc2N)cc1F)c1cc(F)cc(Br)c1 , what is its reported GI50?
Result: 17.2 µM

Problem: For COc1ccc(-c2cn(-c3cccc(C(=O)/C=C/c4cc(OC)c(OC)c(OC)c4)c3)c(=O)[nH]2)cc1 , what is its reported GI50?
Result: 2.61 µM

Problem: For Nc1c(C(=O)c2cccc(-c3ccncc3)c2)cnn1-c1ccc(F)cc1 , what is its reported GI50?
Result: > 25 µM

Problem: For O=C(C1CC1)N1CC[C@@H](Cc2n[nH]c(=O)n2-c2ccc(-c3ccc4occc4c3)cc2)C1 , what is its reported GI50?
Result: 23.4 µM

Problem: For C/C(=C\C(=N\N=C(N)N)c1ccc(Cl)cc1)c1ccc(Cl)cc1 , what is its reported GI50?
Result: 0.146 µM

Problem: For O=C(Nc1ccc(-n2ccc3c(NC(=O)c4ccccc4)ncnc32)cc1)c1ccc(Cl)c(C(F)(F)F)c1 , what is its reported GI50?
Result: 1.48 µM

###

- System: COLO 205 colon
- assay text: NCI tumour cell line growth inhibition, 48 h
quantity name: TGI

Problem: For O=C1c2ccccc2C(=O)c2c1ccc(O)c2O , what is its reported TGI?
Result: > 100 µM

Problem: For Cc1ccc(-c2cc(=S)n(-c3ccccc3)c3nc(=S)n(-c4ccccc4)c(N)c23)cc1 , what is its reported TGI?
Result: > 100 µM

Problem: For COc1ccc(NC(=O)CC(=O)NN2C(=O)/C(=C/c3ccc(N(CCC#N)CCC#N)cc3C)N=C2/C=C\c2ccccc2)cc1 , what is its reported TGI?
Result: > 100 µM

Problem: For C=C(C)C12OC3(c4ccccc4)OC1C1C4OC4(CO)C(O)C4(O)C(=O)C(C)=CC4C1(O3)C(C)C2OC(=O)/C=C/C=C/c1ccccc1 (centres undefined) , what is its reported TGI?
Result: 0.0416 µM

Problem: For COC(=O)C(C)(C)NC(=O)C(Cc1ccccc1)Nc1ncnc2c1ncn2-c1ccc(OC)cc1 (centres undefined) , what is its reported TGI?
Result: > 100 µM

Problem: For Cc1cn(C2OC(CO)C(O)C2O)c(=O)[nH]c1=O (centres undefined) , what is its reported TGI?
Result: > 1000 µM

Problem: For N#Cc1nc(/C=C/c2nc(C#N)c(N)o2)oc1N , what is its reported TGI?
Result: > 10 µM

Problem: For COc1c(Cl)nc2ccccc2c1N=[N+]=[N-] , what is its reported TGI?
Result: > 100 µM

Problem: For CC(C)CC(=O)[O-].CC(C)CC(=O)[O-].N.N.N.N.[Co+3].[O-][Cl+3]([O-])([O-])O.[O-][Cl+3]([O-])([O-])[O-] , what is its reported TGI?
Result: > 100 µM
